# Test system: A549 (NSCLC) cells
# METHOD: Anti-proliferative activity, Cell-Titre luminescent viability assay
# Format: cell-based
# CONDITION INFO: Homo sapiens, 72 h exposure, Cell-Titre luminescent reagent
pIC50: −log10 of the molar value.
If the reported pIC50 equals or exceeds 5, assign y. If not, assign n.

Here's what some known entries look like.
# MOLECULE, EXPERIMENTAL SYSTEM, DISCRETE LABEL
records = [
    ("O=C(Nc1ccc(Cl)cn1)c1ccn(S(=O)(=O)c2ccc3[nH]ccc3c2)c1", "A549 (NSCLC) cells", "y"),
    ("CCC(C)c1ccc(NC(=O)c2ccn(S(=O)(=O)c3cc(C(N)=O)n(C)c3)c2)cc1 (stereo not shown)", "A549 (NSCLC) cells", "n"),
    ("O=C(Nc1ccc(F)nc1)c1ccn(S(=O)(=O)c2ccc3[nH]ccc3c2)c1", "A549 (NSCLC) cells", "n"),
    ("CC(C)Cc1ccc(NC(=O)c2ccn(S(=O)(=O)c3ccc4[nH]ccc4c3)n2)cc1", "A549 (NSCLC) cells", "y"),
    ("CC(C)c1ccc(NC(=O)c2ccn(S(=O)(=O)c3ccc4[nH]ccc4c3)n2)cc1", "A549 (NSCLC) cells", "y"),
]

// next entry
Quick check: does CCC(C)c1ccc(NC(=O)C2CCN(S(=O)(=O)c3cc(C(=O)N(C)C)n(C)c3)CC2)cc1 (stereo not shown) have pIC50 greater than or equal to 5? n

* * *

Could you please report measured IC50 for the items listed next?
# System: SK-N-SH neuroblastoma cells
# METHOD: Cytotoxicity assay, MTS viability
# Format: cell-based
# CONDITION INFO: Homo sapiens, 72 hours
Give bare numbers, in µM.

Consider the following illustrative entries.
# COMPOUND, UNIT SYMBOL, IC50
rows = [
    ("CC(C)(C)c1ccc(S(=O)(=O)n2ccc(C(=O)NCCc3ccc(F)cc3)c2)cc1 [Compound 89]", "µM", 15.6),
    ("O=C(Nc1ccc(Cl)c(Cl)c1)c1ccn(S(=O)(=O)c2ccc3[nH]ccc3c2)n1 [Compound 83]", "µM", 13.1),
    ("O=C(Nc1cccc(C(F)(F)F)c1)C1CCN(S(=O)(=O)c2ccc3[nH]ccc3c2)CC1 [Compound 63]", "µM", 13.5),
    ("CCCc1ccc(NC(=O)c2ccn(S(=O)(=O)c3ccc4[nH]ccc4c3)c2)cc1 [Compound 96]", "µM", 12.2),
    ("O=C(Nc1cccc(F)c1)c1ccn(S(=O)(=O)c2ccc3[nH]ccc3c2)c1 [Compound 49]", "µM", 15.4),
    ("CCC(C)c1ccc(NC(=O)c2ccn(S(=O)(=O)c3cc(C(N)=O)n(C)c3)c2)cc1 (stereo not drawn) [Compound 18]", "µM", 22.3),
]

// for each compound in input: emit IC50
1. Cc1ccc(NC(=O)c2ccn(S(=O)(=O)c3ccc4c(c3)CCN4)c2)cc1O [Compound 22]
2. CCC(C)c1ccc(NC(=O)C2CCN(S(=O)(=O)c3ccn(C)c3)CC2)cc1 (stereo not drawn) [Compound 28]
3. CCC(C)c1ccc(NC(=O)C2CCN(S(=O)(=O)c3ccc4c(c3)CCN4)CC2)cc1 (stereo not drawn) [Compound 3]
4. O=C(Nc1ccccc1C(F)(F)F)c1ccn(S(=O)(=O)c2ccc3[nH]ccc3c2)c1 [Compound 47]
5. Cn1cc(S(=O)(=O)N2CCC(C(=O)Nc3ccc(C(F)(F)F)cc3)CC2)cc1C(N)=O [Compound 2]

[57.6, 11.7, 19.3, 27.8, 26.4]

* * *

Would you mind telling me the reported IC50 of each entry?
# System: A549 (NSCLC) cells
# METHOD: Anti-proliferative activity, Cell-Titre luminescent viability assay
# Type: cell-based
# CONDITION INFO: Homo sapiens, 72 h exposure, Cell-Titre luminescent reagent

// below: answered molecules
# MOLECULE, EXPERIMENTAL SYSTEM, IC50
data = [
    ("Cc1ccc(NC(=O)N2CCN(S(=O)(=O)c3ccc4c(c3)CCN4)CC2)cc1O [Compound 13]", "A549 (NSCLC) cells", "> 100 µM"),
    ("CCc1ccccc1NC(=O)C1CCN(S(=O)(=O)c2ccc3[nH]ccc3c2)CC1 [Compound 61]", "A549 (NSCLC) cells", "> 30 µM"),
]

Shifting focus to the molecule that follows.
Reported IC50 for Cn1cc(S(=O)(=O)N2CCN(C(=O)Nc3ccc(C(F)(F)F)cc3)CC2)cc1C(N)=O [Compound 11] was > 100 µM

* * *

# Tested on: A549 (NSCLC) cells
# METHOD: Anti-proliferative activity, Cell-Titre luminescent viability assay
# Type: cell-based
# CONDITION INFO: Homo sapiens, 72 h exposure, Cell-Titre luminescent reagent
QUANTITY: IC50 (µM)
One number for each entry, in µM.

// worked examples, IC50 included
# MOLECULE, EXPERIMENTAL SYSTEM, UNIT SYMBOL, REPORTED RESULT
measured = [
    ("O=C(Nc1ccc(F)c(Cl)c1)c1ccn(S(=O)(=O)c2ccc3[nH]ccc3c2)n1", "A549 (NSCLC) cells", "µM", 16.1),
    ("CCC(C)c1ccccc1NC(=O)c1ccn(S(=O)(=O)c2ccc3[nH]ccc3c2)c1 (stereo not shown)", "A549 (NSCLC) cells", "µM", 8.9),
    ("O=C(Nc1cccc(C(F)(F)F)c1)C1CCN(S(=O)(=O)c2ccc3[nH]ccc3c2)CC1", "A549 (NSCLC) cells", "µM", 12.6),
]

Report IC50 for every entry below.
1. Cn1cc(S(=O)(=O)N2CCC(C(=O)Nc3ccc(C(F)(F)F)cc3)CC2)cc1C(N)=O
2. COc1ccc(NC(=O)c2ccn(S(=O)(=O)c3ccc4[nH]ccc4c3)c2)cc1
3. N#Cc1ccc(NC(=O)c2ccn(S(=O)(=O)c3ccc4[nH]ccc4c3)c2)cc1

33.7
16.1
14.1

State recorded IC50 for all listed molecules.
1. O=C(Nc1ccc(C(F)(F)F)cc1)C1CCN(S(=O)(=O)c2ccc3[nH]ccc3c2)CC1
2. CC(C)(C)c1ccc(S(=O)(=O)n2ccc(C(=O)Nc3ccc(F)cc3)c2)cc1
3. CCC(C)c1ccc(NC(=O)c2ccn(S(=O)(=O)c3ccc4[nH]ccc4c3)c2)cc1F (stereo not shown)
4. O=C(Nc1ccc(C(F)(F)F)cc1)N1CCN(S(=O)(=O)c2ccc3c(c2)CCN3)CC1

1. 12.1
2. 17.3
3. 7.92
4. 33.1

* * *

# Tested on: A549 (NSCLC) cells
# METHOD: Anti-proliferative activity, Cell-Titre luminescent viability assay
# Assay type: cell-based
# CONDITION INFO: Homo sapiens, 72 h exposure, Cell-Titre luminescent reagent
QUANTITY: IC50

Some compounds with known IC50 results, for comparison:
# COMPOUND, EXPERIMENTAL SYSTEM, IC50
rows = [
    ("Cc1ccc(NC(=O)N2CCN(S(=O)(=O)c3cc(C(N)=O)n(C)c3)CC2)cc1O", "A549 (NSCLC) cells", "> 100 µM"),
    ("CCC(C)c1ccc(NC(=O)N2CCN(S(=O)(=O)c3ccc4c(c3)CCN4)CC2)cc1 (centres unmarked)", "A549 (NSCLC) cells", "> 100 µM"),
    ("Cn1cc(S(=O)(=O)N2CCC(C(=O)NC3CCCCC3)CC2)cc1C(N)=O", "A549 (NSCLC) cells", "> 100 µM"),
]

For every item below, please supply its IC50.
1. Cc1ccc(NC(=O)c2ccn(S(=O)(=O)c3cc(C(N)=O)n(C)c3)c2)cc1O
2. Cn1cc(S(=O)(=O)n2ccc(C(=O)Nc3ccc(C(F)(F)F)cc3)c2)cc1C(N)=O

["> 100 µM", "> 100 µM"]

* * *

# Tested on: A549 (NSCLC) cells
# METHOD: Anti-proliferative activity, Cell-Titre luminescent viability assay
# Type: cell-based
# CONDITION INFO: Homo sapiens, 72 h exposure, Cell-Titre luminescent reagent
Can you tell me IC50 for the items I'm about to list?
Answers are plain numbers, in µM.

# MOLECULE, IC50 / µM
records = [
    ("Cc1cccc(NC(=O)c2ccn(S(=O)(=O)c3ccc4[nH]ccc4c3)c2)c1", 8.7),
]

Please go through the list and note IC50 for each molecule.
1. CCC(C)c1ccc(NC(=O)c2ccn(S(=O)(=O)c3ccc4[nH]ccc4c3)n2)cc1F (stereo not drawn)
2. CCC(C)c1ccc(NC(=O)c2ccn(S(=O)(=O)c3ccc4[nH]cc(C)c4c3)c2)cc1 (stereo not drawn)
3. CC(C)(C)c1ccc(NC(=O)c2ccn(S(=O)(=O)c3ccc4[nH]ccc4c3)n2)cc1F
4. CC(C)c1cccc(NC(=O)c2ccn(S(=O)(=O)c3ccc4[nH]ccc4c3)c2)c1
5. Cc1cc(F)cc(NC(=O)c2ccn(S(=O)(=O)c3ccc4[nH]ccc4c3)c2)c1
6. CC(C)(C)c1ccc(NC(=O)c2ccn(S(=O)(=O)c3ccc4[nH]ccc4c3)c2)cc1F
7. CCC(C)c1ccc(NC(=O)c2ccn(S(=O)(=O)c3ccc4[nH]ccc4c3)c2)cc1 (stereo not drawn)

[5.44, 3.8, 5.93, 5.4, 17.9, 5.17, 6]
